# key: entry, value: IC50 values (µM), transglutaminase activity assay
- target_or_system: transglutaminase
- assay_details: cell-based or functional assay
Numbered stars: 1 amine (or outer) side, 2 acyl side, 3 side chain; on linkers, the order of the positions; unused ones are H or OH. Square brackets hold non-standard residues; d marks the D form. Ends that are not written are not given here. * marks the point of attachment. O(CA) = ornithine chloroamidine, N=C(CCl)NCCC[C@H](N[*:1])C(=O)[*:2]; Orn(fluoroacetimidoyl) = N=C(CF)NCCC[C@H](N)C(=O)O; Moc = COC(=O)*
value_kind: IC50 values (µM), transglutaminase activity assay

binder	result
Ac-KFD[Orn(fluoroacetimidoyl)]DFI-NH2 (SMILES CC[C@H](C)[C@H](NC(=O)[C@H](Cc1ccccc1)NC(=O)[C@H](CC(=O)O)NC(=O)[C@H](CCCNC(=N)CF)NC(=O)[C@H](CC(=O)O)NC(=O)[C@H](Cc1ccccc1)NC(=O)[C@H](CCCCN)NC(C)=O)C(N)=O) [0743-58FA]	1000 µM
Moc-TD[Orn(fluoroacetimidoyl)]GS-OMe (SMILES COC(=O)N[C@H](C(=O)N[C@@H](CC(=O)O)C(=O)N[C@@H](CCCNC(=N)CF)C(=O)NCC(=O)N[C@@H](CO)C(=O)OC)[C@@H](C)O) [CXP5-101]	600 µM
Ac-YD[O(CA)]GS [CXP5.2-081]	> 1000 µM
Ac-KWH[Orn(fluoroacetimidoyl)]DFF-NH2 (SMILES CC(=O)N[C@@H](CCCCN)C(=O)N[C@@H](Cc1c[nH]c2ccccc12)C(=O)N[C@@H](Cc1c[nH]cn1)C(=O)N[C@@H](CCCNC(=N)CF)C(=O)N[C@@H](CC(=O)O)C(=O)N[C@@H](Cc1ccccc1)C(=O)N[C@@H](Cc1ccccc1)C(N)=O) [0748-09FA]	> 1000 µM
Ac-GD[O(CA)]GS [CXP5.2-078]	730 µM
